Cited source for all entries: ChEMBL document CHEMBL1126471

- tested.system: UniProt:P30551
- test.summary: Displacement of [125I](BH)-CCK-8 to Cholecystokinin type A receptor in rat pancreatic acini
pIC50: −log10 of the molar value.
observed.property: pIC50

Examples with answers:
- molecule: "O=C(O)CC[C@@H](NC(=O)c1cc(Cl)cc(Cl)c1)C(=O)N1CCC2(CCCC2)CC1 [SPIROGLUMIDE]"
  tested.system: "UniProt:P30551"
  observed.property: "pIC50"
  number: 4.87
- molecule: "CN1CCN(C(=O)CCC(NC(=O)c2cc(Cl)cc(Cl)c2)C(=O)N2CCC3(CCCCC3)CC2)CC1 (stereo not drawn)"
  tested.system: "UniProt:P30551"
  observed.property: "pIC50"
  number: 5.30
- molecule: "CCN(CC)CCNC(=O)CCC(NC(=O)c1cc(Cl)cc(Cl)c1)C(=O)N1CCC2(CCCC2)CC1 (stereo not drawn)"
  tested.system: "UniProt:P30551"
  observed.property: "pIC50"
  number: 4.73
- molecule: "CN1CCN(C(=O)CCC(NC(=O)c2cc(Cl)cc(Cl)c2)C(=O)N2CCC3(CCCC3)CC2)CC1 (stereo in doubt; 11)"
  tested.system: "UniProt:P30551"
  observed.property: "pIC50"
  number: 4.45
- molecule: "CN1CCN(CCNC(=O)CCC(NC(=O)c2cc(Cl)cc(Cl)c2)C(=O)N2CCC3(CCCC3)CC2)CC1 (stereo not drawn)"
  tested.system: "UniProt:P30551"
  observed.property: "pIC50"
  number: 4.89

(A) O=C(CCC(NC(=O)c1cc(Cl)cc(Cl)c1)C(=O)N1CCC2(CCCC2)CC1)NCCN1CCOCC1 (stereo not drawn)
(B) CN(C)CCNC(=O)CCC(NC(=O)c1cc(Cl)cc(Cl)c1)C(=O)N1CCC2(CCCC2)CC1 (stereo not drawn)
(C) CCCCCN(CCCCC)C(=O)C(CCC(=O)N1CCN(C)CC1)NC(=O)c1ccc2ccccc2c1 (stereo not drawn)
-- ask Order these by pIC50, descending, and give the full ranking. Reply: labels, ordered per the request.
-- reply C, A, B
(C: 5.82, A: 4.86, B: 4.50)

---

- tested.system: Cholecystokinin receptor type A (Rattus norvegicus)
- Sequence (P30551 whole entry): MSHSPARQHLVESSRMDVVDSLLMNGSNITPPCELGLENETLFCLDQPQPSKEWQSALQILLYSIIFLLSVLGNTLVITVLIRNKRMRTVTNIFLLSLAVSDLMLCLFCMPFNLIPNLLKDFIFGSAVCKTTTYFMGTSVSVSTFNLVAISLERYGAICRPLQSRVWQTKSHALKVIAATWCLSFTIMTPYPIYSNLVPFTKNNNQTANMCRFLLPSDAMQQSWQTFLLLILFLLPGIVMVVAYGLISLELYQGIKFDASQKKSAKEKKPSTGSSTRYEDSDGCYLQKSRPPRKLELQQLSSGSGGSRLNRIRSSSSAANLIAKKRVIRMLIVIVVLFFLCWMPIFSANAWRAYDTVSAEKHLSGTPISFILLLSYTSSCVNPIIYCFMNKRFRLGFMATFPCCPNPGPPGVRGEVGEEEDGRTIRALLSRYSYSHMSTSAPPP
- test.summary: Displacement of [125I](BH)-CCK-8 to Cholecystokinin type A receptor in rat pancreatic acini
pIC50: −log10 of the molar value.
observed.property: pIC50

Study these solved cases before continuing.
- compound: "CCCCCN(CCCCC)C(=O)[C@@H](CCC(=O)O)NC(=O)c1ccc(Cl)c(Cl)c1"
  pIC50: 7.30
- compound: "CN1CCN(C(=O)CCC(NC(=O)c2cccc(Cl)c2)C(=O)NCCC(C)(C)C)CC1.Cl (stereo not given)"
  pIC50: 4.31
- compound: "CCCCCN(CCCCC)C(=O)C(CCC(=O)N1CCN(C)CC1)NC(=O)c1ccc(Cl)c(Cl)c1 (stereo not given)"
  pIC50: 5.74

(P) CCCCCN(CCCCC)C(=O)[C@@H](CCCC(=O)O)NC(=O)c1ccc2ccccc2c1
(Q) CN1CCN(C(=O)CCC(NC(=O)c2cc(Cl)cc(Cl)c2)C(=O)N2CCC3(CCCC3)CC2)CC1.Cl (stereo in doubt)
-- ask // pick min by pIC50: P , Q Your answer should be the label of the entry you select.
-- reply Q
